For each entry below, report its MIC99 value.
Tested on: Staphylococcus aureus
test protocol: Antibacterial activity against methicillin-resistant Staphylococcus aureus clinical isolate DM21455 after 20 to 22 hrs by CLSI broth macro-dilution method
Format: functional
Answer format: numeric, µg/mL implied, no suffix.

Exercise: Answer with the recorded MIC99 for the molecule listed here: COc1c(OCCCCN2CCCC2)cc2oc3cc(OCCCCN4CCCC4)c(CC=C(C)C)c(O)c3c(=O)c2c1CC=C(C)C
Solution: 1.56

Exercise: Please give the documented MIC99 of CCN(CC)CCCOc1cc2oc3cc(OCCCN(CC)CC)c(OC)c(CC=C(C)C)c3c(=O)c2c(O)c1CC=C(C)C
Solution: 0.39

Exercise: Given CCN(CC)CCCCCOc1cc2oc3cc(OCCCCCN(CC)CC)c(OC)c(CC=C(C)C)c3c(=O)c2c(O)c1CC=C(C)C , respond with its MIC99.
Solution: 0.78

Exercise: Return reported MIC99. Input molecule: CCN(CC)CCCCCCOc1cc2oc3cc(OCCCCCCN(CC)CC)c(OC)c(CC=C(C)C)c3c(=O)c2c(O)c1CC=C(C)C
Solution: 1.56

Exercise: Look up and state reported MIC99 for COc1c(OCCCCN2CCCCC2)cc2oc3cc(OCCCCN4CCCCC4)c(CC=C(C)C)c(O)c3c(=O)c2c1CC=C(C)C
Solution: 1.56

Exercise: Given the molecule COc1c(O)cc2oc3cc(O)c(CC=C(C)C)c(O)c3c(=O)c2c1CC=C(C)C , write its reported MIC99.
Solution: 1.56

Exercise: Report MIC99, nothing else, for this molecule: CCN(CC)CCCCOc1cc2oc3cc(OCCCCN(CC)CC)c(OC)c(CC=C(C)C)c3c(=O)c2c(O)c1CC=C(C)C
Solution: 0.39

Exercise: Give MIC99 for the following molecule: CCCCCCCCCC(=O)N[C@@H](Cc1c[nH]c2ccccc12)C(=O)N[C@H](CC(N)=O)C(=O)N[C@@H](CC(=O)O)C(=O)N[C@@H]1C(=O)NCC(=O)N[C@@H](CCCN)C(=O)N[C@@H](CC(=O)O)C(=O)N[C@H](C)C(=O)N[C@@H](CC(=O)O)C(=O)NCC(=O)N[C@H](CO)C(=O)N[C@@H]([C@H](C)CC(=O)O)C(=O)N[C@@H](CC(=O)c2ccccc2N)C(=O)O[C@@H]1C
Solution: 0.78
